The values you see were collected from ChEMBL document CHEMBL1140729.

- Test system: Brain
- ASSAY INFO: Inhibition of Fe2+-induced lipid peroxidation in rat brain homogenate
- Format: functional, tissue-based
Reported IC50 by item:
State just the number; it will be interpreted in µM.

IN: Please supply the value of reported IC50 for the item CCOC(=O)C1=C[C@]2(CC)CCCN3CCc4c(n1c1ccccc41)[C@@H]32 [VINPOCETINE]
OUT: 209

---

- System: Brain
- ASSAY INFO: Inhibition of Fe2+-induced lipid peroxidation in rat brain homogenate
- Type: functional, tissue-based
Listed below: pIC50 values for each entry.
The quantity pIC50 is defined as the negative base-10 logarithm of the molar concentration.

Reference set (3 entries):
- COMPOUND: "CC[C@]12C=C(C(=O)O)n3c4c(c5ccccc53)CCN(CCC1)[C@H]42"
  TGT: "Brain"
  VALUE MEASURED: 3.59
- COMPOUND: "Cc1c(C)c2c(c(C)c1O)CCC(C)(CCCC(C)CCCC(C)CCCC(C)C)O2 (racemic)"
  TGT: "Brain"
  VALUE MEASURED: 4.45
- COMPOUND: "CC[C@@]12C=C(C(=O)OCCOC(C)=O)n3c4c(c5ccccc53)CCN(CCC1)[C@@H]42"
  TGT: "Brain"
  VALUE MEASURED: 5.01

Moving on to the next compound.
IN: Fill in reported pIC50 for this entry: `CC[C@]12C=C(C(=O)OCCOC(=O)c3ccccc3)n3c4c(c5ccccc53)CCN(CCC1)[C@H]42`
OUT: 4.83
